- system under test: B2-AR (β2 adrenergic receptor) (Homo sapiens, UniProt P07550)
- Sequence (P07550 whole entry): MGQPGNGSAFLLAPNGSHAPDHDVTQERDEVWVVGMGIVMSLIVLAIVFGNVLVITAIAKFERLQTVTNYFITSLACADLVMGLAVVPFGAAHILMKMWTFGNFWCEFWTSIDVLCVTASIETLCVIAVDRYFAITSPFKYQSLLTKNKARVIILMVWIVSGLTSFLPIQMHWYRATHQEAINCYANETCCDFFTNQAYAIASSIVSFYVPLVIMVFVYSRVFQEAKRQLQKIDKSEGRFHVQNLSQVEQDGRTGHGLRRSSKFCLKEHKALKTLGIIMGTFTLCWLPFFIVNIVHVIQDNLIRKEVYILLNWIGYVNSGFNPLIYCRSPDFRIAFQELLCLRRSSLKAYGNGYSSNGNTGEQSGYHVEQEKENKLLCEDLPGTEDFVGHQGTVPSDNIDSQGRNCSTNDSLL
- assay explanation: cAMP homogeneous time-resolved fluorescence (HTRF) assay, β2
- Experimental: CAMP homogeneous time-resolved fluorescence (HTRF): experimental methods. Compound efficacy is determined using the CAMP Gs dynamic HTRF assay (Cisbio, catalog #62AM4PEC) largely following the manufacturer's instructions, also detailed below. […] Subsequently, 5 μL Anti-cAMP-Eu Donor, diluted 1:21 in detection and lysis buffer 2, was added to cells. […] Plates are centrifuged again at 500×g for 10 seconds, and HTRF was measured using a Tecan Spark plate reader at 50 flashes per well. […]
measurement kind: EC50

- mol smiles: "CC(C)(C)NC[C@H](O)c1cncc2[nH]ncc12"
  system under test: "B2-AR (β2 adrenergic receptor) (Homo sapiens, UniProt P07550)"
  reported result: "10 to 100 nM"

---

- system under test: B1-AR (β1 adrenergic receptor) (Homo sapiens, UniProt P08588)
- Sequence (P08588 whole entry): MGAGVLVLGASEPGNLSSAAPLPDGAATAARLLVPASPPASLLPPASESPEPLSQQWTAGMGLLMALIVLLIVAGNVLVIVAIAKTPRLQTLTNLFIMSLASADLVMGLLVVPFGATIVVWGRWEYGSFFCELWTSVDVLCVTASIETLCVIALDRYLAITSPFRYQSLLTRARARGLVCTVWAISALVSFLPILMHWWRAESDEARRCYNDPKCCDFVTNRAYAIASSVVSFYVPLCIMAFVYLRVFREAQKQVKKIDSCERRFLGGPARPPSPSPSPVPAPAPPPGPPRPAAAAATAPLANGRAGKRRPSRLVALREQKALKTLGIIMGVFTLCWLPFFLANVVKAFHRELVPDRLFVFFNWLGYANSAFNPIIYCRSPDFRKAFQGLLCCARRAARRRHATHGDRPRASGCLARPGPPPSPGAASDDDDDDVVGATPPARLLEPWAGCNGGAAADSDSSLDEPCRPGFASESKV
- assay explanation: cAMP homogeneous time-resolved fluorescence (HTRF) assay, β1

- compound: "CC(C)(C)NC[C@H](O)c1cncc2[nH]ncc12 [Compound 04-153]"
  system under test: "B1-AR (β1 adrenergic receptor) (Homo sapiens, UniProt P08588)"
  EC50: "> 1000 nM"
